System: LNCaP xenograft
procedure summary: Biodistribution of 68Ga-labeled compounds in mice bearing LNCaP xenograft
Assay type: in vivo
test conditions: Lungs, 1 h p.i.
metric: Biodistribution, Lungs (Avg) (% ID/g)
The answer is to be given in % ID/g; state only the numeric part.

| compound | Biodistribution, Lungs (Avg) [% ID/g] |
| --- | --- |
| O=C(O)CCCC(NC(=O)NC(CNC(=O)CNC(=O)C(Cc1c2ccccc2cc2ccccc12)NC(=O)C1CCC(CNC(=O)CN2CCN(CC(=O)O)CCN(CC(=O)O)CCN(CC(=O)O)CC2)CC1)C(=O)O)C(=O)O.[68Ga] (stereo not shown) [68Ga-CCZ01198] | 0.32 |
| O=C(O)CSCC(NC(=O)NC(CNC(=O)CNC(=O)C(Cc1c2ccccc2cc2ccccc12)NC(=O)C1CCC(CNC(=O)CN2CCN(CC(=O)O)CCN(CC(=O)O)CCN(CC(=O)O)CC2)CC1)C(=O)O)C(=O)O.[68Ga] (stereo not shown) [68Ga-CCZ01194] | 0.70 |
| O=C(O)CCCC(NC(=O)NC(CCCONC(=O)C(Cc1c2ccccc2cc2ccccc12)NC(=O)C1CCC(CNC(=O)CN2CCN(CC(=O)O)CCN(CC(=O)O)CCN(CC(=O)O)CC2)CC1)C(=O)O)C(=O)O.[68Ga] (stereo not shown) [^68Ga-CCZ02018] | 0.58 |

Lookup: Looking for the measured Biodistribution, Lungs (Avg) of O=C(O)CCCC(NC(=O)NC(COCCNC(=O)C(Cc1c2ccccc2cc2ccccc12)NC(=O)C1CCC(CNC(=O)CN2CCN(CC(=O)O)CCN(CC(=O)O)CCN(CC(=O)O)CC2)CC1)C(=O)O)C(=O)O.[68Ga] (stereo not shown) [^68Ga-CCZ02011] , can you help?
Found: 0.43

Lookup: Now give it for O=C(O)CCC[C@H](OC(=O)N[C@@H](CCCCNC(=O)[C@H](Cc1c2ccccc2cc2ccccc12)NC(=O)[C@H]1CC[C@H](CNC(=O)CCc2ccc(O)c(CN(CCN(CC(=O)O)Cc3cc(CCC(=O)O)ccc3O)CC(=O)O)c2)CC1)C(=O)O)C(=O)O.[68Ga] [^68Ga-AR-113-1] too.
Found: 1.93

Lookup: Repeat for the following compound: O=C(O)CSCC(NC(=O)NC(Cc1cn(CCNC(=O)C(Cc2c3ccccc3cc3ccccc23)NC(=O)C2CCC(CNC(=O)CN3CCN(CC(=O)O)CCN(CC(=O)O)CCN(CC(=O)O)CC3)CC2)nn1)C(=O)O)C(=O)O.[68Ga] (stereo not shown) [^68Ga-CCZ01186]
Found: 0.21

Lookup: And then O=C(O)CSCC(NC(=O)NC(Cc1ccc(NC(=O)C(Cc2c3ccccc3cc3ccccc23)NC(=O)C2CCC(CNC(=O)CN3CCN(CC(=O)O)CCN(CC(=O)O)CCN(CC(=O)O)CC3)CC2)cc1)C(=O)O)C(=O)O.[68Ga] (stereo not shown) [^68Ga-CCZ01188] , what is it?
Found: 2.15
